tested on: analgesic activity of morphine; assay: Tail Flick Test: increase in the analgesic effect of morphine; assay type: in vivo, rats; conditions: 10'; compound 10 mg/kg i.p. + morphine 2 mg/kg (row Morphine: alone); ± S.E.
parameter.measured: percentage variation in the latency of the pain sensation, 10'
Could you give the number and then its unit, please?

Study these solved cases before continuing.
- smiles.str: "CC(C)c1ccc(C(=O)N[C@@H](Cc2c[nH]c3ccccc23)C(=O)O)cc1"
  result: "20.0 ± 12.8%"
- smiles.str: "O=C(N[C@@H](Cc1c[nH]c2ccccc12)C(=O)O)OCc1ccc(I)cc1"
  result: "62.8 ± 22.8%"
- smiles.str: "O=C(N[C@@H](Cc1c[nH]c2ccccc12)C(=O)O)c1ccc(F)cc1"
  result: "47.9 ± 21.0%"
- smiles.str: "O=C(N[C@@H](Cc1c[nH]c2ccccc12)C(=O)O)OCc1ccc(Br)cc1"
  result: "70.7 ± 19.7%"
- smiles.str: "Cc1ccc(C(=O)N[C@@H](Cc2c[nH]c3ccccc23)C(=O)O)cc1C"
  result: "54.7 ± 14.1%"

Find the recorded percentage variation in the latency of the pain sensation, 10' belonging to "CCCCCCc1ccc(C(=O)N[C@@H](Cc2c[nH]c3ccccc23)C(=O)O)cc1" and report it. 100.0 ± 0.0%

I have this molecule here, "O=C(N[C@@H](Cc1c[nH]c2ccccc12)C(=O)O)c1ccc(Br)cc1" , and I need its recorded percentage variation in the latency of the pain sensation, 10'. 26.7 ± 5.6%

Record request: percentage variation in the latency of the pain sensation, 10' value, item "O=C(N[C@@H](Cc1c[nH]c2ccccc12)C(=O)O)OCc1ccc(Cl)cc1" 50.0 ± 14.9%

====

tested on: analgesic activity of morphine; experiment: Tail Flick Test: increase in the analgesic effect of morphine; assay type: in vivo, rats; conditions: rat, in vivo
The following compounds are shown together with reported Potency ratio relative to morphine alone values.
Just the number, please.

- smiles.str: "O=C(N[C@@H](Cc1c[nH]c2ccccc12)C(=O)O)OCc1ccc(Cl)cc1"
  target.entity: "analgesic activity of morphine"
  Potency ratio relative to morphine alone: 1.50
- smiles.str: "O=C(N[C@@H](Cc1c[nH]c2ccccc12)C(=O)O)c1ccc(I)cc1"
  target.entity: "analgesic activity of morphine"
  Potency ratio relative to morphine alone: 2.63
- smiles.str: "O=C(N[C@@H](Cc1c[nH]c2ccccc12)C(=O)O)c1ccc(F)cc1"
  target.entity: "analgesic activity of morphine"
  Potency ratio relative to morphine alone: 2.33
- smiles.str: "CC(C)Cc1ccc(C(=O)N[C@@H](Cc2c[nH]c3ccccc23)C(=O)O)cc1"
  target.entity: "analgesic activity of morphine"
  Potency ratio relative to morphine alone: 2.13

Potency ratio relative to morphine alone lookup needed for "CC(C)c1ccc(C(=O)N[C@@H](Cc2c[nH]c3ccccc23)C(=O)O)cc1" , thanks. 1.21

Name the recorded Potency ratio relative to morphine alone for "CCCCCCc1ccc(C(=O)N[C@@H](Cc2c[nH]c3ccccc23)C(=O)O)cc1" . 3.2

Find the recorded Potency ratio relative to morphine alone belonging to "O=C(N[C@@H](Cc1c[nH]c2ccccc12)C(=O)O)OCc1ccc(C(F)(F)F)cc1" and report it. 1.45

Form field: reported Potency ratio relative to morphine alone of "Cc1ccc(COC(=O)N[C@@H](Cc2c[nH]c3ccccc23)C(=O)O)cc1" 1.44

====

system: analgesic activity of morphine; test: Tail Flick Test: increase in the analgesic effect of morphine; format: in vivo, rats; details: 90'; compound 10 mg/kg i.p. + morphine 2 mg/kg (row Morphine: alone); ± S.E.
parameter.measured: percentage variation in the latency of the pain sensation, 90' (%)
Give the value in % but do not write % after it.

- smiles.str: "O=C(N[C@@H](Cc1c[nH]c2ccccc12)C(=O)O)OCc1ccc(Cl)cc1"
  units.text: "%"
  quantitative.readout: 43.6
- smiles.str: "Cc1ccc(C(=O)N[C@@H](Cc2c[nH]c3ccccc23)C(=O)O)cc1C"
  units.text: "%"
  quantitative.readout: 52.5
- smiles.str: "Cc1ccc(C(=O)N[C@@H](Cc2c[nH]c3ccccc23)C(=O)O)cc1"
  units.text: "%"
  quantitative.readout: 41.1
- smiles.str: "N#Cc1cccc(C(=O)N[C@@H](Cc2c[nH]c3ccccc23)C(=O)O)c1"
  units.text: "%"
  quantitative.readout: 22.8
- smiles.str: "Cc1ccc(COC(=O)N[C@@H](Cc2c[nH]c3ccccc23)C(=O)O)cc1Cl"
  units.text: "%"
  quantitative.readout: 34.2

Would you kindly share the measured percentage variation in the latency of the pain sensation, 90' for "O=C(N[C@@H](Cc1c[nH]c2ccccc12)C(=O)O)OCc1ccc(C(F)(F)F)cc1" ? 47.9

Field request: percentage variation in the latency of the pain sensation, 90' | item: "N#Cc1ccc(C(=O)N[C@@H](Cc2c[nH]c3ccccc23)C(=O)O)cc1" 21.3

Which percentage variation in the latency of the pain sensation, 90' value belongs to "O=C(N[C@@H](Cc1c[nH]c2ccccc12)C(=O)O)OCc1ccc(F)cc1" ? 40.6

====

Tested on: analgesic activity of morphine
Assay: Tail Flick Test: increase in the analgesic effect of morphine
Type: in vivo, rats
Details: rat, in vivo
Description: Increase in the analgesic effect of analgesic-narcotic drugs in rats in the Tail Flick Test The method is that described by Harris et al. (J. Pharmacol. Exp. Ther. 143 (1964) 141-148). Male rats are used which have a weight of about 150-200 g and which have not been fasting. A point is chosen on the tail and this is irradiated by a heat source (75° C.) and the time (in seconds) for which the animal remains without moving its tail is measured. […]
Please respond with 1 (yes) when measured Potency ratio relative to morphine alone is strictly beneath 2, and with 0 (no) in all other cases.

- smiles.str: "N#Cc1ccc(COC(=O)N[C@@H](Cc2c[nH]c3ccccc23)C(=O)O)cc1"
  label.class: "0 (no)"
- smiles.str: "CCCCc1ccc(C(=O)N[C@@H](Cc2c[nH]c3ccccc23)C(=O)O)cc1"
  label.class: "1 (yes)"

Consider the molecule "Cc1ccc(C(=O)N[C@@H](Cc2c[nH]c3ccccc23)C(=O)O)cc1" . Is its Potency ratio relative to morphine alone strictly less than 2? 1 (yes)

Hello, is Potency ratio relative to morphine alone of the following molecule strictly smaller than 2? "CCCCCCCc1ccc(C(=O)N[C@@H](Cc2c[nH]c3ccccc23)C(=O)O)cc1" 0 (no)

Lab log: compare recorded Potency ratio relative to morphine alone with 2; is it strictly lower for "O=C(N[C@@H](Cc1c[nH]c2ccccc12)C(=O)O)OC(c1ccccc1)c1ccccc1" ? 0 (no)

Strictly below 2 in Potency ratio relative to morphine alone? "CCCCCCCCCc1ccc(C(=O)N[C@@H](Cc2c[nH]c3ccccc23)C(=O)O)cc1" 0 (no)

# TODO verify Potency ratio relative to morphine alone < 2 strictly for this molecule: "O=C(N[C@@H](Cc1c[nH]c2ccccc12)C(=O)O)OCc1ccc(F)cc1" 0 (no)

Is Potency ratio relative to morphine alone of "Cc1cccc(C(=O)N[C@@H](Cc2c[nH]c3ccccc23)C(=O)O)c1" strictly below 2? 0 (no)

====

System: analgesic activity of morphine
Assay: Tail Flick Test: increase in the analgesic effect of morphine
Format: in vivo, rats
Settings: 10'; compound 10 mg/kg i.p. + morphine 2 mg/kg (row Morphine: alone); ± S.E.
Experimental: Increase in the analgesic effect of analgesic-narcotic drugs in rats in the Tail Flick Test The method is that described by Harris et al. (J. Pharmacol. Exp. Ther. 143 (1964) 141-148). Male rats are used which have a weight of about 150-200 g and which have not been fasting. A point is chosen on the tail and this is irradiated by a heat source (75° C.) and the time (in seconds) for which the animal remains without moving its tail is measured. […]
parameter.measured: percentage variation in the latency of the pain sensation, 10'
Write the numeric value and follow it with the unit.

- smiles.str: "O=C(N[C@@H](Cc1c[nH]c2ccccc12)C(=O)O)c1ccc(C(F)(F)F)cc1"
  result: "9.8 ± 10.5%"

Reported percentage variation in the latency of the pain sensation, 10' for "O=C(N[C@@H](Cc1c[nH]c2ccccc12)C(=O)O)c1ccc(I)cc1" : what is it? 77.7 ± 13.8%

Which value of percentage variation in the latency of the pain sensation, 10' has been reported for "N#Cc1ccc(C(=O)N[C@@H](Cc2c[nH]c3ccccc23)C(=O)O)cc1" in the records? 67.6 ± 16.1%

What does the data say about its percentage variation in the latency of the pain sensation, 10'? Entry: "Cc1cccc(C(=O)N[C@@H](Cc2c[nH]c3ccccc23)C(=O)O)c1" 30.5 ± 19.7%

Tell me the measured percentage variation in the latency of the pain sensation, 10' of "CCCCc1ccc(C(=O)N[C@@H](Cc2c[nH]c3ccccc23)C(=O)O)cc1" , please. 47.9 ± 15.7%

GET /values?readout=percentage variation in the latency of the pain sensation, 10'&item= "O=C(N[C@@H](Cc1c[nH]c2ccccc12)C(=O)O)OCc1ccc(C(F)(F)F)cc1" 38.3 ± 13.7%

Please give the measured percentage variation in the latency of the pain sensation, 10' for this molecule: "CCc1ccc(COC(=O)N[C@@H](Cc2c[nH]c3ccccc23)C(=O)O)cc1" 46.7 ± 14.7%

Returns the measured percentage variation in the latency of the pain sensation, 10' for the input molecule. Input: "Cc1ccc(COC(=O)N[C@@H](Cc2c[nH]c3ccccc23)C(=O)O)cc1Cl" 51.5 ± 48.9%
